experiment: Compound was tested for its ability to inhibit Endothelin A receptor induced arachidonic acid release(AARA) in rabbit renal artery vascular smooth muscles.
quantity kind: pIC50
The read-out pIC50 is expressed as -log10 of concentration in moles per litre.

## Input Provide one value: measured pIC50 of OCC(c1ccc2c(c1)OCO2)c1c2ccccc2nc2ccccc12 (stereo unspecified)
## Output 5.00

###

biological target: Endothelin A receptor (Oryctolagus cuniculus); assay: Antagonistic activity against endothelin A receptor in rabbit renal artery vascular smooth muscle cells.
quantity kind: pIC50
The read-out pIC50 is expressed as -log10 of concentration in moles per litre.

O=C(OCc1ccccc1)C(c1ccc2c(c1)OCO2)c1c2ccccc2nc2ccccc12 (stereo not drawn)
5.12

## Input Provide one value: measured pIC50 of O=C(OCc1ccc2c(c1)OCO2)C(c1ccc2c(c1)OCO2)c1c2ccccc2nc2ccccc12 (stereo not drawn)
## Output 5.06
